# TARGET_ENTITY: D(4) dopamine receptor (Homo sapiens)
# Sequence (whole entry): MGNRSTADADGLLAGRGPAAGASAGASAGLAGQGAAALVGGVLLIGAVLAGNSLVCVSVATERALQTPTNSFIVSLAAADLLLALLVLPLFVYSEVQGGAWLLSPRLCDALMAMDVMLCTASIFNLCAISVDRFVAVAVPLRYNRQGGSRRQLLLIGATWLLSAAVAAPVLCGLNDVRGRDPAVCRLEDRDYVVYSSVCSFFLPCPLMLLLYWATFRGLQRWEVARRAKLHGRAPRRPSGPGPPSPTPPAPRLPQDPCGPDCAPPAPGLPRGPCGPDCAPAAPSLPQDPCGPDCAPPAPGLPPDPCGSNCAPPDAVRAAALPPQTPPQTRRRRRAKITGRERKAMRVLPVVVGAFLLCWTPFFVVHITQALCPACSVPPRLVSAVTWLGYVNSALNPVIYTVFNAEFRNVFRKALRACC
# PROCEDURE_TEXT: Displacement of [3H]-methylspiperone from dopamine D4 receptor (unknown origin) at 10 uM
MEASURED_ENDPOINT: inhibition

Query: // returns reported inhibition for input `COc1cc2c(cc1O)CN(Cc1ccccc1CNC(=O)c1ccc(-c3ccccc3)cc1)CC2`
Reply: < 10%

Query: Now consider `COc1cc2c(cc1O)CN(Cc1ccccc1CNC(=O)c1ccc3ccccc3c1)CC2` .
Reply: < 10%

Query: Same read-out for `COc1cc2c(cc1O)CN(Cc1ccccc1CNC(=O)c1ccc(Br)cc1)CC2` ?
Reply: < 10%

Query: Input `COc1cc2c(cc1O)CN(Cc1ccccc1CNC(=O)c1cccc(Br)c1)CC2`
Reply: < 10%

Query: Now consider `N#Cc1cccc(C(=O)NCc2ccccc2CN2CCc3cc(O)c(O)cc3C2)c1` .
Reply: < 10%

Query: Moving on to the next molecule: `COc1cc2c(cc1O)CN(Cc1ccccc1CNC(=O)c1cccc(OC)c1OC)CC2`
Reply: < 10%

Query: Quick one: `COc1cc2c(cc1O)CN(Cc1ccccc1CNC(=O)c1ccc(I)c(OC)c1)CC2`
Reply: < 10%

Query: Quick one: `COc1cc2c(cc1O)CN(Cc1ccccc1CNC(=O)c1ccc(F)cc1)CC2`
Reply: < 10%

Query: Try this molecule too: `COc1cc2c(cc1O)CN(Cc1ccccc1CNC(=O)c1ccc(I)cc1)CC2`
Reply: < 10%

Query: Now the same for `COc1cc2c(cc1O)CN(Cc1ccccc1CNC(=O)c1ccc(Cl)cc1)CC2`
Reply: < 10%

These entries and their values trace back to ChEMBL document CHEMBL4819092.
